Items are presented alongside their recorded pIC50.
Target: HCV polymerase (NS5B570n-Con1) (Hepatitis C virus genotype 1b)
Construct: contains a 21 amino acid deletion at the C-terminus relative to the full-length HCV polymerase; 6-histidine (N)
Test: HCV NS5B RNA Polymerase Activity
pIC50: −log10 of the molar value.
endpoint_label: pIC50

INSERT INTO results (structure_as_smiles, endpoint_label, val) VALUES
  ('COc1ccc(-c2cc(C(C)(C)C)c(OC)c3cc(N4CC[C@H](CNS(C)(=O)=O)C4)ccc23)c(=O)[nH]1', 'pIC50', 8.08),
  ('COc1ccc(-c2cc(C(C)(C)C)cc3cc(-c4ccc(NS(C)(=O)=O)cc4)cnc23)c(=O)[nH]1', 'pIC50', 8.22),
  ('COc1c(CC(F)(F)F)cc(-c2ccc(C)[nH]c2=O)c2ncc(-c3ccc(NS(C)(=O)=O)cc3)cc12', 'pIC50', 8.02),
  ('COc1c(C(C)(C)C)cc(-c2ccc(C)[nH]c2=O)c2ncc(CCCCNS(C)(=O)=O)cc12', 'pIC50', 7.91);
